- SYSTEM_NAME: P-gp (Homo sapiens, UniProt P08183)
- Construct: expressed in transfected cells; host or cells: MDR1-MDCK (MDCK cells expressing MDR1)
- Sequence (P08183 whole entry): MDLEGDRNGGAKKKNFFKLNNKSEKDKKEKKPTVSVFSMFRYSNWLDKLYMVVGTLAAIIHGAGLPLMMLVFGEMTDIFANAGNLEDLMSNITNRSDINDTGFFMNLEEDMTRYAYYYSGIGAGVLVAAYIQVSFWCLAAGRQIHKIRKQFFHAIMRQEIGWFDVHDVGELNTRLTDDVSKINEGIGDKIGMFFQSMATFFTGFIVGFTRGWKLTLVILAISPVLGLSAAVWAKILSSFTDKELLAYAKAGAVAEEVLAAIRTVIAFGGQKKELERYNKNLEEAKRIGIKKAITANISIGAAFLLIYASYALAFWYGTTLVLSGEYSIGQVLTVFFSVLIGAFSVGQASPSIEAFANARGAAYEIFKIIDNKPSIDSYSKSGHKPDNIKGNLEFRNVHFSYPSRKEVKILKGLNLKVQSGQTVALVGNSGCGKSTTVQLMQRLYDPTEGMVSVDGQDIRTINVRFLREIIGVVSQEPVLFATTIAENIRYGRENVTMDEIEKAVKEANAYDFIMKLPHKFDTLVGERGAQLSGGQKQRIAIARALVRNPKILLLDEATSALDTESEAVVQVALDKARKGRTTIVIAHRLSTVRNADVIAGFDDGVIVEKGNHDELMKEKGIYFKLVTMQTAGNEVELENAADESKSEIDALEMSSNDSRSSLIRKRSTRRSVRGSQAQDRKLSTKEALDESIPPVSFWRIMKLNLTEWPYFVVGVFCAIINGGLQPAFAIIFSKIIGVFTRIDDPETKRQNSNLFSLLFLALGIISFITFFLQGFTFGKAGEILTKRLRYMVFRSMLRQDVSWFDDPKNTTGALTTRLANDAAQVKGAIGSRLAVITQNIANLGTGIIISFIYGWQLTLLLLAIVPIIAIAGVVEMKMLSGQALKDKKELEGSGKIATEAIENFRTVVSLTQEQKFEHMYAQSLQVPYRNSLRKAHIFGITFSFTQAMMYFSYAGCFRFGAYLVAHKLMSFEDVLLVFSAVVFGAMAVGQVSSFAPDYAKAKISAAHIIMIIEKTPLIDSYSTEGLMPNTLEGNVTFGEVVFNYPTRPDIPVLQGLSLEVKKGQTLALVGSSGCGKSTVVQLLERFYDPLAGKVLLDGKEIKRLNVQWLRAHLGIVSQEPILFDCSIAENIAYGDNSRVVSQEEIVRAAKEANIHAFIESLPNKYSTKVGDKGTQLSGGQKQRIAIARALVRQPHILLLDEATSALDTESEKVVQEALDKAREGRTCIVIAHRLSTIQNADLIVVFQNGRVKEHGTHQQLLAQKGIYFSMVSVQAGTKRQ
- ASSAY: P-gp substrate potential using MDR1-MDCK monolayers (bidirectional permeability +/- valspodar)
- Assay type: in vitro ADME
- RUN_PARAMETERS: dog, MDCK-MDR1, pH 7.4, MDR1-MDCK, 5 μM, A-to-B, without valspodar, average; read-out: Papp AVG
RESULT_TYPE: Papp A→B at 120 min, 5 μM (×10⁻⁶ cm/s)
Please respond with the number in ×10⁻⁶ cm/s and leave the unit unwritten.

Entry under test: CCN1CCN(Cc2ccc(Nc3ncc(F)c(-c4ccc5nn(C)c(C(C)C)c5c4)n3)nc2)CC1 [Compound 1] . Its Papp A→B at 120 min, 5 μM was 5.34

----------
Consider the following compounds; for each one, report its concentration at 2 h.
- ASSAY: Brain concentration and brain/plasma ratio in mouse after 10 mg/kg p.o.
- Format: in vivo
- RUN_PARAMETERS: brain, po, 10 mg/kg, PO 10 mg/kg, 2.00 h, individual animal R3, read-out: Brain Concentration, R3 + 3n
Please respond with the number in ng/g and leave the unit unwritten.

Entry under test: CCN1CCN(Cc2ccc(Nc3ncc(F)c(-c4ccc5nn(C)c(C(C)C)c5c4)n3)nc2)CC1 . Its concentration at 2 h was 1100

Entry under test: CCN1CCN(Cc2ccc(Nc3ncc(F)c(-c4cc(F)c5nc(C)n(C(C)C)c5c4)n3)nc2)CC1 [abemaciclib, reference compound] . Its concentration at 2 h was 302

----------
- SYSTEM_NAME: P-gp (Homo sapiens)
- Construct: expressed in transfected cells; host or cells: MDR1-MDCK (MDCK cells expressing MDR1)
- ASSAY: P-gp substrate potential using MDR1-MDCK monolayers (bidirectional permeability +/- valspodar)
- Format: in vitro ADME
- RUN_PARAMETERS: dog, MDCK-MDR1, pH 7.4, MDR1-MDCK, 5 μM, B-to-A, without valspodar, replicate R1; read-out: Papp R1
- Method: The objective of this study was to determine the P-gp substrate potential of one test article using MDR1-MDCK monolayers. Each determination was performed in duplicate. […] Analytical conditions are outlined in Appendix 1. Papp=(dCr/dt)×Vr/(A×CA) (1) […]
RESULT_TYPE: Papp B→A at 120 min, 5 μM
Answer with the value and then the unit.

The molecule CCN1CCN(Cc2ccc(Nc3ncc(F)c(-c4ccc5nn(C)c(C(C)C)c5c4)n3)nc2)CC1 , tested on P-gp (Homo sapiens), showed Papp B→A at 120 min, 5 μM of 7.14 ×10⁻⁶ cm/s

----------
- SYSTEM_NAME: P-gp (Homo sapiens)
- Construct: expressed in transfected cells; host or cells: MDR1-MDCK (MDCK cells expressing MDR1)
- ASSAY: P-gp substrate potential using MDR1-MDCK monolayers (bidirectional permeability +/- valspodar)
- Assay type: in vitro ADME
- RUN_PARAMETERS: dog, MDCK-MDR1, pH 7.4, MDR1-MDCK, 5 μM, B-to-A, without valspodar, 120 minutes
RESULT_TYPE: recovery at 120 min, 5 μM (%)
Please respond with the number in % and leave the unit unwritten.

Entry under test: CCN1CCN(Cc2ccc(Nc3ncc(F)c(-c4ccc5nn(C)c(C(C)C)c5c4)n3)nc2)CC1 . Its recovery at 120 min, 5 μM was 51
